pIC50: −log10 of the molar value.
The compounds below have reported pIC50 for UniProt P00533.
Sequence (P00533 25-1210): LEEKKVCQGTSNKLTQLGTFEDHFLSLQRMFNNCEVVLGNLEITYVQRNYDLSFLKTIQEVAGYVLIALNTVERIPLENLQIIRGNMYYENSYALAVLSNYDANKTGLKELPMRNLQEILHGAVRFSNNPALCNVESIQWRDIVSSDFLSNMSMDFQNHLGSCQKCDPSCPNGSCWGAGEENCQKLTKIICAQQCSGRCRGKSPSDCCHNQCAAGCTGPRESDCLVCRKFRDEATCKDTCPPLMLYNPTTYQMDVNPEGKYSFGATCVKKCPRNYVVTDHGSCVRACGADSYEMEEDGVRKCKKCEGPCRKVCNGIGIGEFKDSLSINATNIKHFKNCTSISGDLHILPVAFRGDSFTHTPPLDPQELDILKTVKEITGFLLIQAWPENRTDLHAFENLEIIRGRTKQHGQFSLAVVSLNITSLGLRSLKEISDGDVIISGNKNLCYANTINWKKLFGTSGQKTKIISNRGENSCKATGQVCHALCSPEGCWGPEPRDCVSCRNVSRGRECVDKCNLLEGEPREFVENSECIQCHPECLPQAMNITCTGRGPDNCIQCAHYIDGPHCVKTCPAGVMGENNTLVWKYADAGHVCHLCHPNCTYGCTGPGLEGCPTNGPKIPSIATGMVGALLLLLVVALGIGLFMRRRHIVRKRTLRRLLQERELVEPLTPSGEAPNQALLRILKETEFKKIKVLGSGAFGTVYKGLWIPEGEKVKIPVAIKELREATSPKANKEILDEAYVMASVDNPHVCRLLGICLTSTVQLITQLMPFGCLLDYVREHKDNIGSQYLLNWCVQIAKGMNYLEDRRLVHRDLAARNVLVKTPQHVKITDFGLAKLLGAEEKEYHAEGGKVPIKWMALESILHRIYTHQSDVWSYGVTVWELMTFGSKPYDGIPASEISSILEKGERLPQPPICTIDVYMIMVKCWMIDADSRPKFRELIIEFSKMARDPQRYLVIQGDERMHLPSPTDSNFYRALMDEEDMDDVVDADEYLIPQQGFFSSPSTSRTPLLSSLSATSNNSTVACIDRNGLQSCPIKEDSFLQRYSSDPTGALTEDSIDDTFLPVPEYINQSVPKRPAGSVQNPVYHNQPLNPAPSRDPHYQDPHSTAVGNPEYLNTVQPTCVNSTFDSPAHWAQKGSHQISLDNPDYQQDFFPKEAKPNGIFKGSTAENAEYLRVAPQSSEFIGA

Quick one: pIC50 for `Cc1cc(Nc2ncnc3sc4c(c23)CCN(C(=O)/C=C/CN2CC3CC(C3)C2)C4)ccc1Oc1ccc2ncnn2c1` ?
< 5.00

Which pIC50 is listed for `Cc1ccc(Oc2ccc(Nc3ncnc4sc5c(c34)CCN(C(=O)/C=C/CNC3COC3)C5)cc2C)cn1` ?
< 5.00

Give its pIC50 value. Item: C=CC(=O)N1[C@H](C)Cc2c(sc3ncnc(Nc4ccc(Oc5ccc(C)nc5)c(C)c4)c23)[C@H]1C (racemic)
< 5.00

Can you share its pIC50? I mean this compound: Cc1ccc(Oc2ccc(Nc3ncnc4sc5c(c34)CCN(C(=O)/C=C/CNC3CCOC3)C5)cc2C)cn1 (centres unmarked)
5.00 to 6.00

What measured pIC50 goes with `C=C(CN1CCc2c(sc3ncnc(Nc4ccc(Oc5ccc(C)nc5)c(C)c4)c23)C1)C(=O)OCC` ?
< 5.00

Value lookup for pIC50; key = `O=C(/C=C/CN1CC2CC(C2)C1)N1CCc2c(sc3ncnc(Nc4ccc(Oc5ccc6ncnn6c5)c(Cl)c4)c23)C1`
5.00 to 6.00

For the compound Cc1ccc(Oc2ccc(Nc3ncnc4sc5c(c34)C(C)CN(C(=O)/C=C/CN(C)C)C5)cc2Cl)cn1 (centres unmarked) , what pIC50 is on record?
< 5.00

I'd like to know its pIC50. The compound in question is `Cc1ccc(Oc2ccc(Nc3ncnc4sc5c(c34)CCN(C(=O)/C=C/CN3CCN4CCC3CC4)C5)cc2C)cn1`
< 5.00

Could you tell me which pIC50 is on file for `Cc1cc(Nc2ncnc3sc4c(c23)CCN(C(=O)/C=C/CN(C)C)C4)ccc1Oc1ccc2[nH]ncc2c1` ?
5.00 to 6.00

# pIC50 lookup, item `Cc1cc(Nc2ncnc3sc4c(c23)CCN(C(=O)/C=C/CN(C)C)C4)ccc1Oc1ccc2nccn2c1`
< 5.00

Recorded pIC50 for Cc1ccc(Oc2ccc(Nc3ncnc4sc5c(c34)C(C)CN(C(=O)/C=C/CN3CCOCC3)C5)cc2C)cn1 (centres unmarked) , please?
< 5.00

What value of pIC50 has been recorded for this entry: `COc1ccc(Oc2ccc(Nc3ncnc4sc5c(c34)CN(C(=O)/C=C/CN(C)C)C5)cc2C)cn1`
< 5.00

Which pIC50 is reported for this compound? `Cc1ccc(Oc2ccc(Nc3ncnc4sc5c(c34)CCN(C(=O)/C=C/CN3CCn4cc(C(F)(F)F)nc4C3)C5)cc2C)cn1`
< 5.00

Would you kindly share the measured pIC50 for `COc1cc(Nc2ncnc3sc4c(c23)CCN(C(=O)/C=C/CN(C)C)C4)ccc1Oc1ccccc1` ?
< 5.00
